- study_system: full-length SARM1 (FL-SARM1) (Homo sapiens)
- test_description: FL-SARM1 cellular lysate assay (NAD/NADH-Glo detection of remaining NAD+, NMN-activated)
- run_parameters: Activity (μM) (IC50), 11 point curve
Exercise: state measured IC50 for each of the compounds provided.
Give bare numbers, in µM.

For the 6 compounds below, give their IC50 values.
1. CO[C@@H]1C[C@H](C(=O)Nc2ccc(C)c(-c3ncc(F)cn3)c2)N(c2ncccn2)C1 [Example 324]
2. Cc1ccc(NC(=O)N2CC(C3CC3)C2)cc1-c1ccccn1 [Example 25]
3. Cc1ccc(NC(=O)C(C)(O)C2CCC2)cc1-c1ccccn1 (racemic) [Example 118]
4. CCOC(C)[C@@]12CC(C[C@@H](C)C1)N2C(=O)Nc1ccc(C)c(-c2ncc(F)cn2)c1 (single isomer, unassigned) [Example 187]
5. O=C(Nc1ccc(C(F)(F)F)c(-c2ncc(F)cn2)c1)[C@H]1C[C@H]2C[C@H]2N1c1ccccn1 [Example 301]
6. Cc1ccc(NC(=O)N2C3CCC2[C@H](C)C3)cc1-c1ncc(F)cn1 (single isomer, unassigned) [Example 197]

Result block:
[17, 6.7, 6.1, 0.2, 2.1, 0.4]

For the 8 compounds below, give their IC50 values.
1. Cc1ccc(NC(=O)N2C3CC(C)CC2(C(C)O)C3)cc1-c1ncc(F)cn1 (single isomer, unassigned) [Example 193]
2. Cc1ccc(NC(=O)[C@H]2C[C@H]3C[C@H]3N2c2ncc(Cl)nn2)cc1-c1ncc(F)cn1 [Example 263]
3. Cc1ccc(NC(=O)N2[C@@H]3C[C@@H](C)C[C@H]2C3)cc1-c1cc(OC(F)F)cnn1 [Example 235]
4. Cc1ccc(NC(=O)N2C[C@@H]3C[C@H]2CN3c2ccccc2)cc1-c1ccccn1 [Example 13]
5. Cc1ccc(NC(=O)CC2CCC2)cc1-c1ccccn1 [Example 168]
6. Cc1ccc(NC(=O)C2CN(CC(F)(F)F)C2)cc1-c1ccccn1 [Example 132]
7. CC(=O)N1C[C@H](c2ccccc2)C[C@@H]1C(=O)Nc1ccc(C)c(-c2ncc(F)cn2)c1 [Example 321]
8. Cc1ccc(NC(=O)C2C3CCC2CC3)cc1-c1ncccn1 (stereo not shown) [Example 106]

Result block:
1. 0.1
2. 1.8
3. 0.06
4. 0.7
5. 1.3
6. 43
7. 24
8. 1

For the 2 compounds below, give their IC50 values.
1. Cc1ccc(NC(=O)C2CCC23CC3)cc1-c1ccccn1 (racemic) [Example 113]
2. Cc1ccc(NC(=O)N2CC[C@@H]3[C@@H](C)[C@@H]3C2)cc1-c1ccccn1 (racemic) [Example 37]

Result block:
1: 2.5; 2: 0.1

====

- study_system: full-length SARM1 (FL-SARM1) (Homo sapiens, UniProt Q6SZW1)
- Sequence (Q6SZW1 28-724): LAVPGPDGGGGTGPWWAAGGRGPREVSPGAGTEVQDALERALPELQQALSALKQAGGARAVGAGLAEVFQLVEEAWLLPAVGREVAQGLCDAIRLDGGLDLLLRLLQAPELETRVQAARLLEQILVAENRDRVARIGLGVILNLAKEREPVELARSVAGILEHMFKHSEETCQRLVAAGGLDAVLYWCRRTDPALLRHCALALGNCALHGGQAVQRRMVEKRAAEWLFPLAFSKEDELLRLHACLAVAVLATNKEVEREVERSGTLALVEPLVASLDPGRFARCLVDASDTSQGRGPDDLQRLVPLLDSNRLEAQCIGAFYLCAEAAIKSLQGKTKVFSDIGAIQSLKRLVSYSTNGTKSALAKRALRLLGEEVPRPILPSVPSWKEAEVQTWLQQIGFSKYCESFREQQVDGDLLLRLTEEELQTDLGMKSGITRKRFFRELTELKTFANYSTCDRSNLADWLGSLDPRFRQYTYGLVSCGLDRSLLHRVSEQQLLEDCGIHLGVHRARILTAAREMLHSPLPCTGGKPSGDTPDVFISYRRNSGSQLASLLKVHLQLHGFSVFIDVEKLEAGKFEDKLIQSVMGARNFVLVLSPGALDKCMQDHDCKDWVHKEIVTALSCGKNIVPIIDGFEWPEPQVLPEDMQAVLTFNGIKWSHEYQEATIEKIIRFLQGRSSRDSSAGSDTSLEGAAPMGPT
- test_description: FL-SARM1 cellular lysate assay (NAD/NADH-Glo detection of remaining NAD+, NMN-activated)
- run_parameters: Activity (μM) (IC50), 11 point curve
Exercise: state measured IC50 for each of the compounds provided.
Give bare numbers, in µM.

Would you please look over these solved cases?
compound: Cc1cc(F)c(NC(=O)N2[C@@H]3C[C@@H](C)C[C@@]2(C(C)(C)O)C3)cc1-c1ncc(F)cn1 (racemic)
recorded_result: 0.06
--
compound: Cc1cnc(-c2cc(NC(=O)N3C4C[C@@H](C)C[C@H]3C4)c(F)cc2C)nn1
recorded_result: 0.2
--
compound: Cc1ccc(NC(=O)N2C3CCCC2C3)cc1-c1ncc(F)c(C)n1
recorded_result: 1.4

Would you kindly look at the next entry?
Query block: For `Cc1ccc(NC(=O)N2C3C[C@@H](C#N)C[C@@H]2C3)cc1-c1ccccn1` , what is its reported IC50?
Result block: 0.4
